MBC reference
system: Pseudomonas aeruginosa; test: Bactericidal activity against Pseudomonas aeruginosa MTCC 741 after 24 hrs by two fold dilution method; format: functional; conditions: MTCC 741, 24 h
Number in µg/mL, nothing else.

Worked cases, MBC given:
chemical_string: COc1ccc([C@@H](C)N[C@@H](C)[C@H](O)c2ccccc2)cc1.Cl
val: 250
//
chemical_string: CC(C)C[C@@H](C)N[C@@H](C)[C@H](O)c1ccccc1.Cl
val: 125
//
chemical_string: C[C@H](N[C@H](C)[C@@H](O)c1ccccc1)c1ccccc1.Cl
val: 500

Please give the measured MBC for this compound: CC[C@H](N[C@H](C)[C@@H](O)c1ccccc1)c1ccccc1.Cl 125

Please give the measured MBC for this compound: C[C@H](N[C@H](C)c1ccccc1)[C@H](O)c1ccccc1.Cl 125

----------
tested on: Klebsiella pneumoniae; experiment: Antimicrobial activity against Klebsiella pneumoniae MTCC 109 after 24 hrs by two fold dilution method; assay type: functional; settings: MTCC 109, 24 h
property: log10 MIC (log10 of the value in µg/mL)
Values below are the log10 of the recorded MIC, with µg/mL as the unit.

Worked cases, log10 MIC given:
chemical_string: CC[C@@H](N[C@@H](C)[C@H](O)c1ccccc1)c1ccccc1.Cl
test_target: Klebsiella pneumoniae
property: log10 MIC
val: 1.19

chemical_string: CC[C@H](N[C@H](C)[C@@H](O)c1ccccc1)c1ccccc1.Cl
test_target: Klebsiella pneumoniae
property: log10 MIC
val: 1.49

chemical_string: C[C@H](N[C@H](C)[C@@H](O)c1ccccc1)c1ccccc1.Cl
test_target: Klebsiella pneumoniae
property: log10 MIC
val: 2.10

chemical_string: CN[C@@H]1[C@H](O[C@H]2[C@H](O[C@H]3[C@H](O)[C@@H](O)[C@H](N=C(N)N)[C@@H](O)[C@@H]3N=C(N)N)O[C@@H](C)[C@]2(O)C=O)O[C@@H](CO)[C@H](O)[C@H]1O
test_target: Klebsiella pneumoniae
property: log10 MIC
val: 0.80

chemical_string: CC(C)C[C@H](C)N[C@H](C)[C@@H](O)c1ccccc1.Cl
test_target: Klebsiella pneumoniae
property: log10 MIC
val: 2.40

chemical_string: COc1ccc([C@H](C)N[C@H](C)[C@@H](O)c2ccccc2)cc1.Cl
test_target: Klebsiella pneumoniae
property: log10 MIC
val: 1.80

Please give the measured log10 MIC for this compound: C[C@H](N[C@H](C)c1ccccc1)[C@H](O)c1ccccc1.Cl 2.40

Please give the measured log10 MIC for this compound: CC(C)C[C@@H](C)N[C@@H](C)[C@H](O)c1ccccc1.Cl 1.80

Please give the measured log10 MIC for this compound: COc1ccc([C@@H](C)N[C@@H](C)[C@H](O)c2ccccc2)cc1.Cl 1.80

----------
test system: Klebsiella aerogenes; assay: Antimicrobial activity against Enterobacter aerogenes MTCC 111 after 24 hrs by two fold dilution method; type: functional; conditions: MTCC 111, 24 h
property: MIC (µg/mL)
Number in µg/mL, nothing else.

Worked cases, MIC given:
chemical_string: C[C@H](N[C@H](C)c1ccccc1)[C@H](O)c1ccccc1.Cl
result_units: µg/mL
val: 125

chemical_string: COc1ccc([C@H](C)N[C@H](C)[C@@H](O)c2ccccc2)cc1.Cl
result_units: µg/mL
val: 62.5

Please give the measured MIC for this compound: C[C@H](N[C@H](C)[C@@H](O)c1ccccc1)c1ccccc1.Cl 125

Please give the measured MIC for this compound: CC(C)C[C@H](C)N[C@H](C)[C@@H](O)c1ccccc1.Cl 250
